Assay: in vitro
Set-up: species or system HB2, CCD841
Settings: human, hek293 cells
Mark fulfilled for viability at 48 h, 10 µM under 90%, not fulfilled if at or over.

>>> discretelabel("C=CC(=O)Nc1cc(CC(C)(C)C)nn1C")
"fulfilled"
>>> discretelabel("COC(=O)C1(NC(=O)CCl)CCCCC1")
"not fulfilled"
>>> discretelabel("N#CC1(NC(=O)CCl)CCCCCC1")
"fulfilled"
>>> discretelabel("C=CC(=O)N1CCCN(C(=O)C2CCCO2)CC1 (stereo not shown)")
"not fulfilled"
>>> discretelabel("CNC(=O)c1ccc(NC(=O)CCl)cc1")
"fulfilled"
>>> discretelabel("Cl.O=C(CCl)NCc1ccccn1")
"not fulfilled"
>>> discretelabel("C=CC(=O)Nc1cccc(F)c1C")
"fulfilled"
>>> discretelabel("O=C(CCl)N(c1ccc(F)cc1)C1C=CS(=O)(=O)C1 (stereo not shown)")
"fulfilled"
>>> discretelabel("Cc1cccc(N2CCN(C(=O)CCl)CC2)c1C")
"fulfilled"
>>> discretelabel("C=CC(=O)NCc1cnc(C)s1")
"fulfilled"
>>> discretelabel("C=CC(=O)N1CCC(C(=O)[O-])CC1.[Na+]")
"not fulfilled"
>>> discretelabel("C=CC(=O)N1CCCc2[nH]c3ccc(F)cc3c2C1")
"not fulfilled"
>>> discretelabel("CCN(C(=O)CCl)C1CC1")
"not fulfilled"
>>> discretelabel("O=C(CCl)Nc1ccc(Cl)c([N+](=O)[O-])c1")
"fulfilled"
>>> discretelabel("Cc1ccc(-n2nc(C)cc2NC(=O)CCl)cc1")
"fulfilled"
>>> discretelabel("Cc1ccccc1CNC(=O)CCl")
"not fulfilled"
>>> discretelabel("O=C(CCl)Nc1cc(C(F)(F)F)ccc1-n1cncn1")
"fulfilled"
>>> discretelabel("O=C(CCl)Nc1cccc(I)c1")
"fulfilled"
>>> discretelabel("C=CC(=O)N1CCCC(c2nnc3ccc(C(F)(F)F)cn23)C1 (stereo not shown)")
"not fulfilled"
>>> discretelabel("Cc1ccc([N+](=O)[O-])c(NC(=O)CCl)c1C")
"fulfilled"
>>> discretelabel("O=C(CCl)N1CCc2sccc2C1")
"fulfilled"

====

Assay: in vitro
Design: species or system HB2, HEK293
Details: human, ccd841 cells
endpointLabel: viability at 48 h, 10 µM (%)

>>> quantitativeresult("Cc1ccc(NC(=O)CCl)cc1Cl")
37.4
>>> quantitativeresult("O=C(CCl)N=c1sccn1Cc1ccccc1")
5.2
>>> quantitativeresult("CNC(=O)C1CCN(C(=O)CCl)CC1")
95.1
>>> quantitativeresult("O=C(CCl)NC(=O)Nc1ccc2c(c1)OCCCO2")
67.2
>>> quantitativeresult("O=C(CCl)NNC(=O)c1ccccc1Cl")
72.3
>>> quantitativeresult("NC(=O)C1CCN(C(=O)CCl)CC1")
97.9
>>> quantitativeresult("C=CC(=O)N1CCCC(Cn2ccnn2)C1 (stereo not shown)")
102
>>> quantitativeresult("Cc1ccc(C)c(NC(=O)CCl)c1")
62.3
>>> quantitativeresult("C=CC(=O)N1CCCC(Cc2nnc3ccccn23)C1 (stereo not shown)")
87.9
>>> quantitativeresult("C=CC(=O)N1Cc2ccccc2OC(C)(C)C1")
111
>>> quantitativeresult("O=C(CCl)Nc1ccccc1I")
91.1
>>> quantitativeresult("O=C(CCl)N1CCC(C(=O)N2CCCC2)CC1")
78.5
>>> quantitativeresult("O=C(CCl)Nc1cccc(Cl)c1")
41.1

====

Reported NUDT7 values follow for various compounds
Biological target: NUDT7 (Homo sapiens)
Construct: residues 14-235, E. coli, pNIC28-Bsa4, N-terminal His6 tag removed by TEV, construct 26672 Da
Sequence (P0C024 14-235): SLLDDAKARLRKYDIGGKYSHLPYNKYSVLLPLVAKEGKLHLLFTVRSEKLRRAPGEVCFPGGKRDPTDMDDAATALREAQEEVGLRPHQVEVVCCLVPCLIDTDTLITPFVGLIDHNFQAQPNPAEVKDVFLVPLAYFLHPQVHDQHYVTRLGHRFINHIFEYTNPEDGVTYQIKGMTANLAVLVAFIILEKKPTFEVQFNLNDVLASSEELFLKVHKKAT
Set-up: Intact protein LC/MS covalent labelling, fragments in pools of five, 200 uM each, 4 °C
Conditions: 24 h, 4 °C, pool of five; 200 µM; covalent
endpointLabel: NUDT7

>>> quantitativeresult("C=CC(=O)N1CCCC(c2nnc3ccc(C(F)(F)F)cn23)C1 (stereo not drawn)")
0
>>> quantitativeresult("O=C(CCl)Nc1ccc(OC(F)(F)F)cc1")
0.24
>>> quantitativeresult("CC1(c2ccccc2)NC(=O)N(NC(=O)CCl)C1=O (stereo not drawn)")
0

====

Target: OTUB2 (OTUB2A) (Homo sapiens)
Construct: full length residues 1-234, E. coli BL21(DE3)-R3, His tag removed by TEV, construct 27312 Da
Sequence (Q96DC9 whole entry, the tested form may be a part): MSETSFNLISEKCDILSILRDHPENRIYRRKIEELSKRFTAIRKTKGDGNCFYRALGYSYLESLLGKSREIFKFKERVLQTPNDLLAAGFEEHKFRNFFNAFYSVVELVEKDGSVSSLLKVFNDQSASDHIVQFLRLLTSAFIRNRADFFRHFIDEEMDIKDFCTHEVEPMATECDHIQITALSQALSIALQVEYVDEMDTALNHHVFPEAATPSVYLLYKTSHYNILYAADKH
Parameters: Intact protein LC/MS covalent labelling, fragments in pools of five, 200 uM each, 4 °C
Settings: 24 h, 4 °C, pool of five; 200 µM; covalent
endpointLabel: OTUB2

>>> quantitativeresult("C=CC(=O)NCC1CCCCC1 [PCM-0102766]")
0
>>> quantitativeresult("CS(=O)(=O)c1cccc(NC(=O)CCl)c1 [PCM-0102407]")
0.33
>>> quantitativeresult("C=CC(=O)N1CCCC(Cc2nccn2C)C1 (stereo not shown) [PCM-0102433]")
0.26
>>> quantitativeresult("CN(C(=O)CCl)c1ccc([N+](=O)[O-])cc1 [PCM-0102669]")
0
>>> quantitativeresult("O=C(CCl)Nc1ccc(F)c(F)c1 [PCM-0102328]")
0.31
>>> quantitativeresult("O=C(CCl)Nc1nc(-c2ccc(F)c(F)c2)cs1 [PCM-0102244]")
0.29
>>> quantitativeresult("C=CC(=O)NCc1ccc(F)cc1 [PCM-0102839]")
0
>>> quantitativeresult("C=CC(=O)N1CCN(c2nc3ccccc3o2)C(C)C1 (stereo not shown) [PCM-0102441]")
0
>>> quantitativeresult("N#Cc1cccc(CNC(=O)CCl)c1 [PCM-0102936]")
0.32
>>> quantitativeresult("Cc1ccccc1CN1CCCN(C(=O)CCl)CC1.Cl [PCM-0102911]")
0
>>> quantitativeresult("O=C(CCl)N1CCc2sccc2C1 [PCM-0102123]")
0.39
>>> quantitativeresult("CC(C)(C)c1cc(NC(=O)CCl)n(-c2ccccc2)n1 [PCM-0102536]")
0.14
>>> quantitativeresult("CC(C)(C)NC(=O)CNC(=O)CCl [PCM-0102817]")
0.41
>>> quantitativeresult("Cc1noc(C)c1CNC(=O)CCl [PCM-0102780]")
0
>>> quantitativeresult("CN(CCC#N)C(=O)CCl [PCM-0102712]")
0
>>> quantitativeresult("O=C(CCl)Nc1nc2c(s1)CCC2 [PCM-0102457]")
0
>>> quantitativeresult("Cc1ccc([N+](=O)[O-])cc1NC(=O)CCl [PCM-0102098]")
0.33
>>> quantitativeresult("Cc1ccc(S(=O)(=O)N2CCN(C(=O)CCl)CC2)cc1C [PCM-0102379]")
0
>>> quantitativeresult("O=C(CCl)NCC1CCS(=O)(=O)C1 (stereo not shown) [PCM-0102896]")
0.23

====

Target: NUDT7 (Homo sapiens)
Construct: residues 14-235, E. coli, pNIC28-Bsa4, N-terminal His6 tag removed by TEV, construct 26672 Da
Set-up: Intact protein LC/MS covalent labelling, fragments in pools of five, 200 uM each, 4 °C
Settings: 24 h, 4 °C, pool of five; 200 µM; covalent
Reported NUDT7 values follow for various molecules
endpointLabel: NUDT7

>>> quantitativeresult("COC(=O)c1ccc(NC(=O)CCl)cc1")
0
>>> quantitativeresult("C=CC(=O)N1CCN(C(=O)Nc2ccc(C)c(Cl)c2)CC1")
0
>>> quantitativeresult("O=C(CCl)NC1CCCC1")
0
>>> quantitativeresult("C=CC(=O)NCc1c2c(nn1C)CCCC2")
0
>>> quantitativeresult("O=C(CCl)N1CCC(C(=O)N2CCCCCC2)CC1")
0
>>> quantitativeresult("O=C(CCl)Nc1cc2c(cc1Cl)OCCO2")
0.12
>>> quantitativeresult("CCN(C(=O)CCl)C1CC1")
0
>>> quantitativeresult("C=CC(=O)N1CCC2(CCN(C)C2=O)CC1")
0
>>> quantitativeresult("O=C(CCl)Nc1cc(C(F)(F)F)ccc1-n1cncn1")
0.28
>>> quantitativeresult("CC1CN(c2ccc(NC(=O)CCl)cc2)CC(C)O1 (stereo not shown)")
0
>>> quantitativeresult("CN(Cc1cccc(C(F)(F)F)c1)C(=O)CCl")
0.09
>>> quantitativeresult("CC1CCCC(C)N1C(=O)CCl (stereo not shown)")
0
>>> quantitativeresult("O=C(CCl)Nc1nc2c(F)c(F)c(F)cc2s1")
0.32
>>> quantitativeresult("CCOC(=O)C1CCN(C(=O)CCl)CC1")
0
>>> quantitativeresult("Cc1ccc(S(C)(=O)=O)cc1NC(=O)CCl")
0
>>> quantitativeresult("Cc1ccc(NC(=O)NC(=O)CCl)c(C)c1")
0.2

====

Test: in vitro
Design: species or system HB2, CCD841
Conditions: human, hek293 cells
Mark T for viability at 48 h, 10 µM under 70%, F if at or over.

>>> discretelabel("N#Cc1ccsc1NC(=O)CCl [PCM-0102768]")
"T"
>>> discretelabel("O=C(CCl)NC1CCCCNC1=O (stereo not shown) [PCM-0102109]")
"F"
>>> discretelabel("O=C(O)C1Cc2ccccc2CN1C(=O)CCl (stereo not shown) [PCM-0102761]")
"F"
>>> discretelabel("CC(NC(=O)CCl)c1ccc(Cl)cc1Cl (stereo not shown) [PCM-0102212]")
"T"
>>> discretelabel("C=CC(=O)N1CCN(c2nccc3sccc23)CC1 [PCM-0102715]")
"F"
>>> discretelabel("N#CSc1ccc(NC(=O)CCl)c(F)c1 [PCM-0102548]")
"T"
>>> discretelabel("Cl.O=C(CCl)N1CCN(c2ccc(F)cc2)CC1 [PCM-0102905]")
"T"
>>> discretelabel("C=CC(=O)N1Cc2ccc(S(=O)(=O)N(C)C)cc2C1 [PCM-0102718]")
"F"
>>> discretelabel("Cl.O=C(CCl)N1CCN(CC(=O)N2CCCC2)CC1 [PCM-0102346]")
"F"
>>> discretelabel("C=CC(=O)NC1CC(C)(C)OC1(C)C (stereo not shown) [PCM-0102562]")
"F"
>>> discretelabel("O=C(CCl)Nc1ccc(Br)cn1 [PCM-0102227]")
"F"
>>> discretelabel("Cc1cccc(CN2CCN(C(=O)CCl)CC2)c1 [PCM-0102340]")
"T"
